targetOfAssay: Cruzipain (Trypanosoma cruzi) (UniProt P25779)
Sequence (P25779 123-467 limits assumed): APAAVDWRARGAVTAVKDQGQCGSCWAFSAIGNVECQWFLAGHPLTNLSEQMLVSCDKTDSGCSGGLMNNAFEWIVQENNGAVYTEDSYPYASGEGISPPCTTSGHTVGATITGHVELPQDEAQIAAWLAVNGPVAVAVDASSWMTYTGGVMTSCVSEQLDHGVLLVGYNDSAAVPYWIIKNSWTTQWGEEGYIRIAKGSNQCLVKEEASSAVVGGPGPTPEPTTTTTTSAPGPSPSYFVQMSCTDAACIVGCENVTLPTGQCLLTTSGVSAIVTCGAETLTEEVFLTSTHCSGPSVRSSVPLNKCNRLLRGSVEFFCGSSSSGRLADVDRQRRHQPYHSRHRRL
test: Inhibition of recombinant Trypanosoma cruzi cruzain at 100 uM using Z-phe-Arg-amidomethylcoumarin as substrate by fluorometric method relative to control
Provide the recorded inhibition for the entries that follow.
Please answer in the form of a number followed by its unit of measurement.

Lookup: What reported inhibition corresponds to Clc1ccc2[nH]c(CNCCCN3CCOCC3)cc2c1 on Cruzipain (Trypanosoma cruzi) (UniProt P25779)?
Found: 15%

Lookup: Repeat for the following compound: OCCNc1ccnc2cc(Cl)ccc12
Found: 60%

Lookup: Repeat for the following compound: Clc1ccc2c(NCCCN3CCOCC3)ccnc2c1
Found: 88%

Lookup: Repeat for the following compound: c1ccc(CNCc2cc3ccccc3[nH]2)cc1
Found: 9%

Lookup: Repeat for the following compound: Clc1ccc2[nH]c(CNC3CCCCC3)cc2c1
Found: 8%

Lookup: Repeat for the following compound: O=C(CNCCCN1CCOCC1)Nc1ccccc1
Found: 2.9%

Lookup: Repeat for the following compound: Clc1ccc2c(NCc3ccccc3)ccnc2c1
Found: 65%

###

targetOfAssay: UniProt:P25779
test: Inhibition of recombinant Trypanosoma cruzi cruzain at 100 uM using Z-phe-Arg-amidomethylcoumarin as substrate by fluorometric method relative to control
Kind request: treat 6% as inclusive, so inhibition at 6% or higher is 1, anything lower is 0.

Lookup: API: above_or_equal(metric=inhibition, cutoff=6%) for item CN1CCN(CC(=O)Nc2ccc(Cl)cc2)CC1
Found: 1

Lookup: Repeat for the following compound: Clc1ccc2c(NCCCN3CCCCC3)ccnc2c1
Found: 1

Lookup: Repeat for the following compound: Clc1ccc2[nH]c(CNCc3ccccc3)cc2c1
Found: 0

Lookup: Repeat for the following compound: c1c[nH]c(CNCCCN2CCOCC2)c1
Found: 0

Lookup: Repeat for the following compound: CN1CCN(CC(=O)Nc2ccccc2)CC1
Found: 1

Lookup: Repeat for the following compound: CCCNc1ccnc2cc(Cl)ccc12
Found: 1

Lookup: Repeat for the following compound: Cc1ccc(NC(=O)CNCCCN2CCOCC2)cc1
Found: 0

Lookup: Repeat for the following compound: O=C(CNc1ccnc2cc(Cl)ccc12)N1CCOCC1
Found: 1

Lookup: Repeat for the following compound: CN1CCN(Cc2ccc[nH]2)CC1
Found: 1

Lookup: Repeat for the following compound: CN1CCN(c2ccncn2)CC1
Found: 0

Lookup: Repeat for the following compound: O=C(CN1CCc2ccccc2C1)Nc1ccccc1
Found: 1

Lookup: Repeat for the following compound: Cc1ccc(NC(=O)CN2CCc3ccccc3C2)cc1
Found: 1

Lookup: Repeat for the following compound: c1c[nH]c(CN2CCc3ccccc3C2)c1
Found: 0

Lookup: Repeat for the following compound: c1ccc2c(c1)CCN(c1ccncn1)C2
Found: 1

Lookup: Repeat for the following compound: c1ccc2[nH]c(CNCCCN3CCOCC3)cc2c1
Found: 0

Lookup: Repeat for the following compound: O=C(CN1CCc2ccccc2C1)Nc1ccc(Cl)cc1
Found: 1

Lookup: Repeat for the following compound: Clc1ccc2c(NCCN3CCOCC3)ccnc2c1
Found: 1

Lookup: Repeat for the following compound: O=C(CNCCCN1CCOCC1)Nc1ccc(Cl)cc1
Found: 1

Lookup: Repeat for the following compound: OCCCNc1ccnc2cc(Cl)ccc12
Found: 1

Lookup: Repeat for the following compound: c1cc(NCCCN2CCOCC2)ncn1
Found: 0

Lookup: Repeat for the following compound: Clc1ccc2c(NCCN3CCCCC3)ccnc2c1
Found: 1

Lookup: Repeat for the following compound: c1c[nH]c(CN2CCOCC2)c1
Found: 1

Lookup: Repeat for the following compound: Cc1ccc(NC(=O)CN2CCN(C)CC2)cc1
Found: 0
